# PROTOCOL_DESCRIPTION: Plasma pharmacokinetics and urinary elimination after single oral and intravenous administration
# Type: in vivo, FVB mice
# PROTOCOL_CONDITIONS: FVB, mouse, plasma, po; p.o. 60 mg/Kg
PROPERTY_NAME: AUC(0-inf) (ng·h/mL)
Quick note: give the figure in ng·h/mL, leave out the unit.

CHEM_SMILES	NUMERIC_RESULT
COCCNC(=N)NCCC[C@H](N)c1noc(=O)[nH]1	6180

**Q:** For "COCCNC(=N)NCCC[C@H](N)C(=O)NS(C)(=O)=O" , what is its reported AUC(0-inf)?
**A:** 2010

Where do the numbers come from? From paper PMC8840040.
